FYI, the data here is from patent US9346839B2.

# protocol.text: Pharmacokinetic study, plasma and brain levels by LC-MS/MS
# Type: in vivo
# settings: both sexes, C57BL6, mouse; Plasma; intravenous 10 mg/kg, mice
metric: AUC(0-inf) (ng·h/mL)
Just the number in ng·h/mL, nothing appended.

*Q* AUC(0-inf) for COC(=O)c1cc([C@H](Nc2nc3ccc(OC)cc3s2)P(=O)(OC)OC)ccc1O [Compound 4] ?
*A* 3030

*Q* AUC(0-inf) for COc1ccc2nc(N[C@@H](c3ccc(O)cc3)P(=O)(OC)OC)sc2c1 (racemic) [Compound 8] ?
*A* 2870

*Q* AUC(0-inf) for COc1ccc2nc(N[C@@H](c3ccc(F)cc3)P(=O)(OC)OC)sc2c1 [Compound 15] ?
*A* 2990
